Provide the reported Population Tubulin-Different-Phenotype (%) of each item.
Tested on: U2OS
Assay: Multiplex assay against U2OS
Assay type: toxicity, cell-based
Details: human, 12 h, 1 µM, compound concentration 1 uM, replicate 1
Answer with a number only, understood to be in %.

**Q:** Which Population Tubulin-Different-Phenotype (%) value is on record for CN1CCN(CCOc2cc(OC3CCOCC3)c3c(Nc4c(Cl)ccc5c4OCO5)ncnc3c2)CC1 ?
**A:** 15

**Q:** Which Population Tubulin-Different-Phenotype (%) value is on record for C=CC(=O)Nc1cc2c(Nc3ccc(F)c(Cl)c3)ncnc2cc1OCCCN1CCOCC1.Cl.Cl [CANERTINIB DIHYDROCHLORIDE] ?
**A:** 100

**Q:** Which Population Tubulin-Different-Phenotype (%) value is on record for CC(C)NCC(O)COc1ccc(CCOCC2CC2)cc1.Cl (stereo not drawn) [BETAXOLOL HYDROCHLORIDE] ?
**A:** 12

**Q:** Which Population Tubulin-Different-Phenotype (%) value is on record for CCN(CC)CCCCNc1ncc2cc(-c3cc(OC)cc(OC)c3)c(NC(=O)NC(C)(C)C)nc2n1 ?
**A:** 33

**Q:** Which Population Tubulin-Different-Phenotype (%) value is on record for CN(C)CC#Cc1ccc(OCCCc2sc(N3CCc4cccc(C(=O)Nc5nc6ccccc6s5)c4C3)nc2C(=O)O)c(F)c1 ?
**A:** 11

**Q:** Which Population Tubulin-Different-Phenotype (%) value is on record for COc1cccc([C@@H](C)NCCCc2ccccc2Cl)c1.Cl [TECALCET HYDROCHLORIDE] ?
**A:** 30

**Q:** Which Population Tubulin-Different-Phenotype (%) value is on record for C[C@@]1(C(=O)Nc2ccc(F)nc2)CCCN1c1nc(Nc2cc(C3CC3)n[nH]2)c2cccn2n1 ?
**A:** 78

**Q:** Which Population Tubulin-Different-Phenotype (%) value is on record for CNc1nc(NCc2ccc(NS(C)(=O)=O)cc2Cl)cc(-c2ccccn2)n1 ?
**A:** 19

**Q:** Which Population Tubulin-Different-Phenotype (%) value is on record for CN1CCN(c2ccc(OC(F)(F)F)c(Nc3ncc4c(n3)-c3c(c(C(N)=O)nn3CCO)CC4)c2)CC1 ?
**A:** 13

**Q:** Which Population Tubulin-Different-Phenotype (%) value is on record for CC[C@H](C)C(=O)O[C@H]1C[C@@H](C)C=C2C=C[C@H](C)[C@H](CC[C@@H]3C[C@@H](O)CC(=O)O3)[C@H]21 ?
**A:** 13

**Q:** Which Population Tubulin-Different-Phenotype (%) value is on record for CN(C)C(=O)N[C@H]1CC[C@H](CCN2CCN(c3cccc(Cl)c3Cl)CC2)CC1.Cl [CARIPRAZINE HYDROCHLORIDE] ?
**A:** 14

**Q:** Which Population Tubulin-Different-Phenotype (%) value is on record for Cc1csc2c(N[C@@H](C)CN3CCN(S(=O)(=O)c4ccc(Cl)c(Cl)c4)CC3)ncnc12 ?
**A:** 50

**Q:** Which Population Tubulin-Different-Phenotype (%) value is on record for C=CC(=O)Nc1cccc(C(=O)Nc2ccc(Nc3cc(-c4[nH]c(SC)nc4C)ccn3)cc2)c1 ?
**A:** 11

**Q:** Which Population Tubulin-Different-Phenotype (%) value is on record for Cc1nc(Nc2n[nH]c3c2CN(C(=O)N[C@H](CN(C)C)c2ccccc2)C3(C)C)c2sccc2n1 ?
**A:** 21

**Q:** Which Population Tubulin-Different-Phenotype (%) value is on record for c1cn2cc(-c3ccc4cn[nH]c4c3)nc(Nc3ccc(N4CCOCC4)cc3)c2n1 ?
**A:** 41

**Q:** Which Population Tubulin-Different-Phenotype (%) value is on record for CN(C)C(=O)/C(C#N)=C/c1ccc(-c2nc3cnc4[nH]ccc4c3n2C2CCCCC2)o1 ?
**A:** 8

**Q:** Which Population Tubulin-Different-Phenotype (%) value is on record for Cn1cc(-c2[nH]c3cc(NC(=O)[C@H](N)C4CCCCC4)cc4c3c2C=NNC4=O)cn1 ?
**A:** 16

**Q:** Which Population Tubulin-Different-Phenotype (%) value is on record for O=C1NCN(c2ccccc2)C12CCN(CCCOc1ccc(F)cc1)CC2 [SPIRAMIDE] ?
**A:** 10

**Q:** Which Population Tubulin-Different-Phenotype (%) value is on record for CN1CCC[C@@H]1CCO[C@](C)(c1ccccc1)c1ccc(Cl)cc1.O=C(O)/C=C/C(=O)O [CLEMASTINE FUMARATE] ?
**A:** 12

**Q:** Which Population Tubulin-Different-Phenotype (%) value is on record for COc1cc(-n2cnc3cc(-c4ccc(Cl)cc4)sc3c2=O)ccc1OCCN1CCCC1 ?
**A:** 65

**Q:** Which Population Tubulin-Different-Phenotype (%) value is on record for OC1(c2ccc(Cl)cc2)CCN(Cc2c[nH]c3ccccc23)CC1 ?
**A:** 11

**Q:** Which Population Tubulin-Different-Phenotype (%) value is on record for Cc1c(-c2ccc(O)cc2)n(Cc2ccc(OCCN3CCCCCC3)cc2)c2ccc(O)cc12 ?
**A:** 20

**Q:** Which Population Tubulin-Different-Phenotype (%) value is on record for Cl.N#Cc1ccc2[nH]cc(CCCCN3CCN(c4ccc5oc(C(N)=O)cc5c4)CC3)c2c1 [VILAZODONE HYDROCHLORIDE] ?
**A:** 29

**Q:** Which Population Tubulin-Different-Phenotype (%) value is on record for Cc1[nH]c(/C=C2\C(=O)Nc3ccc(S(=O)(=O)N(C)c4cccc(Cl)c4)cc32)c(C)c1C(=O)N1CCN(C)CC1 ?
**A:** 80

**Q:** Which Population Tubulin-Different-Phenotype (%) value is on record for Cc1nc(-c2ccc(-c3ccc(C(=O)N4CCc5cc6c(cc54)C4(CCN(C)CC4)CO6)cc3)c(C)c2)no1 ?
**A:** 46

**Q:** Which Population Tubulin-Different-Phenotype (%) value is on record for Cc1nc(-c2cn3c(n2)-c2ccc(-c4cnn(C(C)(C)C(N)=O)c4)cc2OCC3)n(C(C)C)n1 ?
**A:** 9

**Q:** Which Population Tubulin-Different-Phenotype (%) value is on record for COc1ncc(-c2ccc3nccc(-c4ccnnc4)c3c2)cc1NS(=O)(=O)c1ccc(F)cc1F ?
**A:** 9

**Q:** Which Population Tubulin-Different-Phenotype (%) value is on record for Cn1cc(C2=C(c3cn(C4CCN(Cc5ccccn5)CC4)c4ccccc34)C(=O)NC2=O)c2ccccc21 ?
**A:** 48

* * *

Test system: U2OS
Assay: Multiplex assay against U2OS
Assay type: toxicity, cell-based
Conditions: human, 24 h, 1 µM, compound concentration 1 uM, replicate 1
VALUE KIND: Population Tubulin-Different-Phenotype (%)
Answer with a number only, understood to be in %.

**Q:** Which Population Tubulin-Different-Phenotype (%) value is on record for CN(C)C(=O)N[C@H]1CC[C@H](CCN2CCN(c3cccc(Cl)c3Cl)CC2)CC1.Cl [CARIPRAZINE HYDROCHLORIDE] ?
**A:** 8

**Q:** Which Population Tubulin-Different-Phenotype (%) value is on record for C[C@@H](NCCCc1cccc(C(F)(F)F)c1)c1cccc2ccccc12.Cl [CINACALCET HYDROCHLORIDE] ?
**A:** 20

**Q:** Which Population Tubulin-Different-Phenotype (%) value is on record for Cn1cc(-c2[nH]c3cc(NC(=O)[C@H](N)C4CCCCC4)cc4c3c2C=NNC4=O)cn1 ?
**A:** 14

**Q:** Which Population Tubulin-Different-Phenotype (%) value is on record for CN1CCC[C@@H]1CCO[C@](C)(c1ccccc1)c1ccc(Cl)cc1.O=C(O)/C=C/C(=O)O [CLEMASTINE FUMARATE] ?
**A:** 13

**Q:** Which Population Tubulin-Different-Phenotype (%) value is on record for CN1CCN(CCOc2cc(OC3CCOCC3)c3c(Nc4c(Cl)ccc5c4OCO5)ncnc3c2)CC1 ?
**A:** 11

**Q:** Which Population Tubulin-Different-Phenotype (%) value is on record for OC1(c2ccc(Cl)cc2)CCN(Cc2c[nH]c3ccccc23)CC1 ?
**A:** 10

**Q:** Which Population Tubulin-Different-Phenotype (%) value is on record for CCN(CC)CCCCNc1ncc2cc(-c3cc(OC)cc(OC)c3)c(NC(=O)NC(C)(C)C)nc2n1 ?
**A:** 57

**Q:** Which Population Tubulin-Different-Phenotype (%) value is on record for Cc1cc(C)cc(-c2cnc3cc(Cl)c(-c4cccc(O)c4)cc3c2OCCCN)c1 ?
**A:** 68

* * *

System: U2OS
Assay: Multiplex assay against U2OS
Format: toxicity, cell-based
Settings: human, 48 h, 1 µM, compound concentration 1 uM, replicate 2
VALUE KIND: Population Fragmented Nuclei (%)
Answer with a number only, understood to be in %.

**Q:** Which Population Fragmented Nuclei (%) value is on record for CC(C)NCC(O)COc1ccc(CCOCC2CC2)cc1.Cl (stereo not given) [BETAXOLOL HYDROCHLORIDE] ?
**A:** 9

**Q:** Which Population Fragmented Nuclei (%) value is on record for CN1CCC[C@@H]1CCO[C@](C)(c1ccccc1)c1ccc(Cl)cc1.O=C(O)/C=C/C(=O)O [CLEMASTINE FUMARATE] ?
**A:** 5

**Q:** Which Population Fragmented Nuclei (%) value is on record for Cc1cc(C)cc(-c2cnc3cc(Cl)c(-c4cccc(O)c4)cc3c2OCCCN)c1 ?
**A:** 11

**Q:** Which Population Fragmented Nuclei (%) value is on record for Cc1c(-c2ccc(O)cc2)n(Cc2ccc(OCCN3CCCCCC3)cc2)c2ccc(O)cc12 [BAZEDOXIFENE] ?
**A:** 14

**Q:** Which Population Fragmented Nuclei (%) value is on record for COc1ncc(-c2ccc3nccc(-c4ccnnc4)c3c2)cc1NS(=O)(=O)c1ccc(F)cc1F [OMIPALISIB] ?
**A:** 43

**Q:** Which Population Fragmented Nuclei (%) value is on record for C=CC(=O)Nc1cccc(C(=O)Nc2ccc(Nc3cc(-c4[nH]c(SC)nc4C)ccn3)cc2)c1 ?
**A:** 6

**Q:** Which Population Fragmented Nuclei (%) value is on record for Cc1[nH]c(/C=C2\C(=O)Nc3ccc(S(=O)(=O)N(C)c4cccc(Cl)c4)cc32)c(C)c1C(=O)N1CCN(C)CC1 ?
**A:** 16

**Q:** Which Population Fragmented Nuclei (%) value is on record for Cc1csc2c(N[C@@H](C)CN3CCN(S(=O)(=O)c4ccc(Cl)c(Cl)c4)CC3)ncnc12 ?
**A:** 12

**Q:** Which Population Fragmented Nuclei (%) value is on record for Cn1cc(-c2[nH]c3cc(NC(=O)[C@H](N)C4CCCCC4)cc4c3c2C=NNC4=O)cn1 ?
**A:** 15

**Q:** Which Population Fragmented Nuclei (%) value is on record for CC(C)(O)CNc1ncc(-c2ccnc(Nc3ccnc(Cl)c3)n2)c(CC2CC2)n1 ?
**A:** 13
